Collected fluorescence slope values appear next to each entry.
target: Voltage-gated potassium channel subunit beta-2 (Rattus norvegicus); test: inhibitors of rat Kvbeta2 reductase activity – biochemical, NADPH fluorescence, primary screen (AID 622); settings: recombinant KvBeta, 4-cyanobenzaldehyde reduction, at 10 µM, stronger effect = higher value;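 note: slope of raw intensity against log time taken from 70 to 1610 s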
Give the figure by itself; no unit, no explanation.

| COMPOUND | fluorescence slope |
| --- | --- |
| COc1ccc(CC(=O)NCc2ccccc2)cc1S(=O)(=O)N1CCOCC1 | -0.583 |
| CC1CCc2nc(NC(=O)CN3CCN(Cc4ccc5c(c4)OCO5)CC3)sc2C1 (stereo unspecified) | -0.544 |

In: Give the measured fluorescence slope of CCOc1ccc(C(c2nnnn2Cc2ccccc2)N2CCN(C(=O)c3ccco3)CC2)cc1 (stereo unspecified) .
Out: -0.492

In: Give the measured fluorescence slope of CCOc1ccccc1NC(=O)N1CCCC1C(=O)Nc1nnc(CC)s1 (stereo unspecified) .
Out: -0.296

In: Give the measured fluorescence slope of O=S(=O)(c1ccccc1)N1CCSC1c1ccco1 (stereo unspecified) .
Out: -0.555

In: Give the measured fluorescence slope of CC(=O)c1cc(-c2ccccc2)n(CC(=O)N2CCC(N3CCCCC3)CC2)c1C .
Out: -0.545

In: Give the measured fluorescence slope of Cc1cc(-c2ccccc2)nc2cc(C(N)=O)nn12 .
Out: -0.424

In: Give the measured fluorescence slope of O=C(CSc1nnc(-c2cccs2)o1)N1CCOCC1 .
Out: -0.539

In: Give the measured fluorescence slope of CC1(C)S[C@@H]2[C@H](NC(=O)[C@H](N)c3ccccc3)C(=O)N2[C@H]1C(=O)O .
Out: -0.459

In: Give the measured fluorescence slope of CCOc1ccc(-n2cc(C(=O)Nc3cccc(C)n3)c3cc(OC)c(OC)cc3c2=O)cc1 .
Out: -0.414

In: Give the measured fluorescence slope of O=C(NCc1ccco1)Nc1ccc2nsnc2c1 .
Out: -0.445

In: Give the measured fluorescence slope of O=C(OCc1nnc(-c2ccccc2)o1)C1=COCCO1 .
Out: -0.432

In: Give the measured fluorescence slope of CCC(=O)n1nc(-c2ccco2)nc1N .
Out: -0.486

In: Give the measured fluorescence slope of CC(C)[C@H](NC(=O)OC(C)(C)C)c1nnc(S(=O)(=O)Cc2c(F)cccc2Cl)o1 .
Out: -0.521

In: Give the measured fluorescence slope of COC(=O)C1(C)NC(c2ccco2)C2C(=O)N(c3ccc(C)cc3)C(=O)C21 (stereo unspecified) .
Out: -0.318

In: Give the measured fluorescence slope of NC(=O)c1nsnc1-c1ccccc1O .
Out: -0.531

----------
experiment: endothelial E-selectin expression blockers – imaging, HUVEC, immunofluorescence, MLSMR starter and 10KST1 sets, primary screen (AID 487); conditions: HUVEC TNFalpha-induced E-selectin immunofluorescence imaging, at 2 µM; stronger effect = higher value;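 note: signal is fraction of cell area covered by stained E-selectin grains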
Collected inhibition values appear next to each entry.
Express the result in % but write the number alone.

Below: 3 molecules and their reported inhibition.
| MOLECULE | inhibition, % |
| --- | --- |
| CCOC(=O)NC(c1ccccc1)C1CCCCC1=O (configuration not stated) | -25.5 |
| CCn1cc(/C=C(/C#N)S(=O)(=O)c2ccccc2)cn1 | -61.5 |
| N#Cc1cnc(SCC(=O)Nc2ccccc2C(F)(F)F)nc1N | -205 |

In: Give the measured inhibition of COc1cc2c(cc1OC)C(c1cc(OC)c(OC)c(OC)c1)NCC2 (configuration not stated) .
Out: -28.8

In: Give the measured inhibition of COc1cc2nc(N3CCN(C(=O)C4COc5ccccc5O4)CC3)nc(N)c2cc1OC (configuration not stated) .
Out: -103

In: Give the measured inhibition of Cc1cccc(-n2ncc(C#N)c2N)c1 .
Out: -44.1

In: Give the measured inhibition of Cn1nc(-c2ccc(C(=O)N3CCN(c4ccccc4)CC3)cc2)c2ccccc2c1=O .
Out: -13.7
